test: gradient 5% acetonitrile 3 min, to 50% in 2 min, to 85% in 15 min, held 3 min, 100 µL/min; settings: column: Zorbax Extend-C18 2.1 x 50 mm; eluents: water / acetonitrile, 0.1% formic acid
value_type: RP-LC retention time (s)

A = O=S(=O)(c1ccccc1F)N1CCC(c2noc(-c3ccccc3)n2)CC1
B = COc1ccc(NC(=O)N2CCN(c3cnn4c(C)nnc4c3)CC2)cc1
## Task Task for the reader: decide whether A or B has the larger RP-LC retention time. Write the label of whichever entry you select.
## Result A
(A: 1020 s, B: 594 s)

----------
experiment: gradient 5% acetonitrile 3 min, to 50% in 2 min, to 85% in 15 min, held 3 min, 100 µL/min; conditions: column: Zorbax Extend-C18 2.1 x 50 mm; eluents: water / acetonitrile, 0.1% formic acid
value_type: RP-LC retention time (s)

Some compounds with recorded RP-LC retention time:
{"compound": "Cc1ccc(CNC(=O)C2(C)Cn3cnc(C(=O)NC4CCCCC4)c3C(=O)N2C2CC2)cc1 (configuration not stated)", "RP-LC retention time, s": 819}
{"compound": "Cc1ccc(CN2CCN(C3CCN(C(=O)Nc4ccc(F)cc4F)CC3)C(=O)C2=O)cc1", "RP-LC retention time, s": 748}
{"compound": "CCc1ccc(NC(=O)C2CCCN(S(=O)(=O)c3c[nH]c(C(=O)N4CCCC4)c3)C2)cc1 (configuration not stated)", "RP-LC retention time, s": 873}
{"compound": "Cc1cccc(CNC(=O)C2CCN(c3nnc4c(Cl)cccn34)CC2)c1C", "RP-LC retention time, s": 757}
{"compound": "Cc1ccc(-c2ccc3nn(Cc4nc(-c5cccc(Br)c5)no4)c(=O)n3n2)cc1", "RP-LC retention time, s": 1070}

A = CCc1cc(=O)n(CC(=O)Nc2cc(C)on2)c(-c2ccccc2)n1
B = Cc1nn2c(CNC(=O)c3ccccc3Br)c(C)nc2s1
## Task Please state the entry with greater RP-LC retention time among A and B . Your answer should be the label attached to the chosen record.
## Result A
(A: 938 s, B: 610 s)

P = CCCN1CCN(c2cc(C(=O)O)c3cc(NS(=O)(=O)c4ccccc4)ccc3n2)CC1
Q = CCS(=O)(=O)N1CCC2(CC1)CN(Cc1ccc(OC)cc1)C2=O
## Task Looking at recorded values for RP-LC retention time, does P or Q come in lower? Which one? Tell me its label.
## Result Q
(Q: 745 s, P: 1110 s)
